Molecular target: acetylcholinesterase enzyme from an electric ray Tetronarce californica (Tetronarce californica)
Construct: purchased Sigma-Aldrich
Assay: Acetylcholinesterase inhibition assay (Ellman method, 96-well microplates)
Assay type: biochemical
property.measured: IC50 (µM)
API: value field is a number in µM; no unit string.

Q. Item `CN(CCCCNC(=O)/C=C/c1ccccc1)CCCNC(=O)/C=C/c1ccccc1` has what recorded IC50?
A. 19.6

---

Quick reference: IC50 of the listed items.
Target: acetylcholinesterase enzyme from an electric ray Tetronarce californica (Tetronarce californica, UniProt P04058)
Construct: purchased Sigma-Aldrich
Sequence (P04058 22-586): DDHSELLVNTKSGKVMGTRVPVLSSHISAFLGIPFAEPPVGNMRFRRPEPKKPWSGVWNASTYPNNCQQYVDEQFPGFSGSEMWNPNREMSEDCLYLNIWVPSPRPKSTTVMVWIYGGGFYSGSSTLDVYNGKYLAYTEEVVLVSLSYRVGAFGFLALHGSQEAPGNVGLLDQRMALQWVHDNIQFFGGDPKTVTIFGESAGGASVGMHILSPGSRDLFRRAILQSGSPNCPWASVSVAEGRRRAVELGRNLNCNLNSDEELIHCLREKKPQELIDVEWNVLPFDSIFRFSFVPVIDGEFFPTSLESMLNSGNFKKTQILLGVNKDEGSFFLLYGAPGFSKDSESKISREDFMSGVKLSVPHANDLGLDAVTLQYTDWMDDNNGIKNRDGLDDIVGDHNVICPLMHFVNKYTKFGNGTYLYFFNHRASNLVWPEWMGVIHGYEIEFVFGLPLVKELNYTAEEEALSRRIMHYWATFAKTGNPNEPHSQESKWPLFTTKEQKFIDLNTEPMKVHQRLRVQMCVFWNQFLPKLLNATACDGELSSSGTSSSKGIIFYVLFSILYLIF
Test: Acetylcholinesterase inhibition assay (Ellman method, 96-well microplates)
Type: biochemical
Settings: TcAChE, Ellman, 25 °C, pH 8, triplicate; read-out: IC50 for the acetylcholinesterase (AChE) inhibition assay
Write the value in µM as a bare number.

Solved entries:
[
  {
    "molecule": "CN(C)C(=O)Oc1cccc([N+](C)(C)C)c1 [neostigmine, reference compound]",
    "property.measured": "IC50",
    "observed": 3.72
  },
  {
    "molecule": "COc1cc2c3c(c1OC)C1(C=CC(=O)C=C1)CC3NCC2 (stereo not shown)",
    "property.measured": "IC50",
    "observed": 61.2
  },
  {
    "molecule": "COc1cc2c(cc1OC)-c1cc3ccc(OC)c(OC)c3c[n+]1CC2",
    "property.measured": "IC50",
    "observed": 35.2
  }
]

Could you now consider this next molecule?
Q. Item COc1cc2c(cc1O)C(Cc1ccc(O)c(Oc3cc4c(cc3OC)CCNC4Cc3ccc(O)cc3)c1)NCC2 (single isomer, unassigned) [lindoldhamine isomer 1, Lindoldhamine isomer] has what recorded IC50?
A. 39.4

// data source = paper PMC9144276
